For each entry below, report its IC50 value.
- assayed system: Human Aryl Hydrocarbon Receptor (AhR) (Homo sapiens, UniProt P35869)
- Sequence (P35869 11-848): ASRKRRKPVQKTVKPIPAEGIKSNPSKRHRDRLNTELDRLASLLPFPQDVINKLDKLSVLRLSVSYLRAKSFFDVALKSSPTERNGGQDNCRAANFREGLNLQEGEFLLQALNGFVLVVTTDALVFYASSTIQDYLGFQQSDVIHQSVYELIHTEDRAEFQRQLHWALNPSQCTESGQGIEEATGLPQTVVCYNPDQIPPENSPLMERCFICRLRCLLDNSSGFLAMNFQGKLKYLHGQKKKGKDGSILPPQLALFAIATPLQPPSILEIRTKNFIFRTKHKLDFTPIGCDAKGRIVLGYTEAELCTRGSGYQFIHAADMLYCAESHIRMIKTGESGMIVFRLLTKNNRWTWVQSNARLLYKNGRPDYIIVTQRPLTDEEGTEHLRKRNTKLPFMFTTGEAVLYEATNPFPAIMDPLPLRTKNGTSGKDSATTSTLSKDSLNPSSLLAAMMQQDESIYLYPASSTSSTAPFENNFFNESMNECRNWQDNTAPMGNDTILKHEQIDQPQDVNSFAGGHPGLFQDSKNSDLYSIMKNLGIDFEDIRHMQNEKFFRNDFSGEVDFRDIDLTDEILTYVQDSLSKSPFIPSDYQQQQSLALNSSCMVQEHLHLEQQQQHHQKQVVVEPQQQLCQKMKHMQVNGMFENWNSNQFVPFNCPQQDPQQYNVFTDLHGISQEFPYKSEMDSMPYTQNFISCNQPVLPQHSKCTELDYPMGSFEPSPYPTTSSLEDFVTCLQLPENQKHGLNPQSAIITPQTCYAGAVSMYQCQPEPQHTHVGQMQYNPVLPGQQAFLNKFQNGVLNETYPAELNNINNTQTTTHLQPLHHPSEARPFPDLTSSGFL
- test: AHR antagonist reporter assay in human cell line (INDIGO AhR Reporter Assay System, kynurenic acid activated)
- settings: 200 μM kynurenic acid, 24 hours, luciferase; read-out: AhR Reporter Assay KA Antagonist Mode: IC50

What does the record list as IC50 for CC(=O)N(C)CCNC(=O)c1cc(-c2ccc(Cl)cc2)nn(-c2cccc(F)c2)c1=O [Compound 20] ? > 0.4 µM

I have this compound here, C[C@H](NC(=O)c1cc(-c2ccc(OC(F)(F)F)cc2)nn(-c2cnn(C)c2)c1=O)C(=O)N(C)C [Compound 146] , and I need its recorded IC50. < 0.1 µM

What value of IC50 has been recorded for this entry: COC[C@H](C)NC(=O)c1cc(-c2ccc3ccc(OC)nc3c2)nn(-c2cnn(C)c2)c1=O [Compound 122] > 0.4 µM

Reported IC50, compound COC[C@H](C)NC(=O)c1cc(-c2cccc(Cl)c2)nn(-c2cnn(C)c2)c1=O [Compound 104] : ____ < 0.1 µM

For the compound CNC(=O)[C@H](C)NC(=O)c1cc(-c2ccc(-c3ccc(Cl)cc3)cc2)nn(-c2cnn(C)c2)c1=O [Compound 171] , what IC50 is on record? < 0.1 µM

Which value of IC50 has been reported for COC[C@H](C)NC(=O)c1cc(-c2ccc3cnccc3c2)nn(-c2cnn(C)c2)c1=O [Compound 133] in the records? > 0.4 µM

Reported IC50, compound C[C@@H](CO)NC(=O)c1cc(N2CCN(c3ccccc3F)CC2)nn(-c2cnn(C)c2)c1=O [Compound 209] : ____ < 0.1 µM

Quick one: IC50 for O=C(NC1CNC1)c1cc(-c2ccc(Cl)cc2)nn(-c2cccc(F)c2)c1=O [Compound 5] ? > 0.4 µM

====

- assayed system: Human Aryl Hydrocarbon Receptor (AhR) (Homo sapiens)
- test: AHR antagonist reporter assay in human cell line (INDIGO AhR Reporter Assay System, kynurenic acid activated)
- settings: 200 μM kynurenic acid, 24 hours, luciferase; read-out: AhR Reporter Assay KA Antagonist Mode: IC50
Answer each item with its documented IC50.

Need IC50 of COC[C@H](C)NC(=O)c1cc(-c2ccc3c(c2)CCCO3)nn(-c2cnn(C)c2)c1=O , thanks. > 400 nM

Requested read-out: IC50. Entry: COC[C@H](C)NC(=O)c1cc(-c2cc3c(O)ncnc3cc2F)nn(-c2cnn(C)c2)c1=O > 400 nM

Form field: reported IC50 of COC[C@H](C)NC(=O)c1cc(-n2nc(C(F)(F)F)cc2C)nn(-c2cnn(C)c2)c1=O > 400 nM

Data request, read-out IC50, for CN(C)CCNC(=O)c1cc(-c2ccc(Cl)cc2)nn(-c2cccc(F)c2)c1=O > 400 nM

Name the recorded IC50 for O=C(NC1CCCCNC1=O)c1cc(-c2ccc(Cl)cc2)nn(-c2cccc(F)c2)c1=O (centres unmarked) . < 100 nM

IC50 lookup needed for C[C@@H](CO)NC(=O)c1cc(-c2cnc(-c3ccc(Cl)cc3)nc2)nn(-c2cnn(C)c2)c1=O , thanks. < 100 nM

Suppose we examine the compound C[C@@H](CO)NC(=O)c1cc(-n2cc(-c3ccc(Cl)cc3)cn2)nn(-c2cnn(C)c2)c1=O ; what IC50 value has been reported? < 100 nM

For the compound C[C@@H](CO)NC(=O)c1cc(-c2ccc(C3CCCCC3)cc2)nn(-c2cnn(C)c2)c1=O , what IC50 is on record? < 100 nM

====

- assayed system: Human Aryl Hydrocarbon Receptor (AhR) (Homo sapiens, UniProt P35869)
- test: AHR antagonist reporter assay in human cell line (INDIGO AhR Reporter Assay System, kynurenic acid activated)
- settings: 200 μM kynurenic acid, 24 hours, luciferase; read-out: AhR Reporter Assay KA Antagonist Mode: IC50
- Procedure: The AhR reporter assay was performed following the protocol of the Human Aryl Hydrocarbon Receptor (AhR) Reporter Assay System (INDIGO Bioscience, #1B06001-32). AhR Reporter Cell was thawed and pre-incubated in Cell Recovery Medium (CRM) for 6 hours. […] The firefly luciferase activity was quantified using a plate reader. […]
pIC50: −log10 of the molar value.
measure name: pIC50

Recorded pIC50 of COC[C@H](C)NC(=O)c1cc(-c2cccc(F)c2)nn(-c2cnn(C)c2)c1=O , please. < 6.40

What value of pIC50 has been reported for the following molecule? C[C@@H](CO)NC(=O)c1cc(-c2ccc(-c3ccc(F)nc3)nc2)nn(-c2cnn(C)c2)c1=O > 7.00

Entry COC[C@H](C)NC(=O)c1cc(N2C[C@H]3CCCC[C@H]3C2)nn(-c2cnn(C)c2)c1=O : reported pIC50 = ? > 7.00

Form field: reported pIC50 of COC[C@H](C)NC(=O)c1cc(-c2ccc(Cl)cc2)nn(-c2cn[nH]c2)c1=O 6.40 to 7.00

For the molecule shown here, C[C@H](NC(=O)c1cc(-c2ccc(C(=O)N(C)C)cc2)nn(-c2cccc(F)c2)c1=O)C(=O)N(C)C , give the reported pIC50. < 6.40

Would you mind telling me what pIC50 value was observed for C[C@@H](CO)NC(=O)c1cc(-c2ccc(-c3ccccc3)nc2)nn(-c2cnn(C)c2)c1=O ? > 7.00

Look up pIC50 for this molecule: COC[C@H](C)NC(=O)c1cc(-c2ccc3oc(C)nc3c2)nn(-c2cnn(C)c2)c1=O < 6.40

Entry CNC(=O)C(C)(C)NC(=O)c1cc(-c2ccc(Cl)cc2)nn(-c2cnn(C)c2)c1=O : reported pIC50 = ? > 7.00

Could you tell me which pIC50 is on file for Cc1nn(C)c2cc(-c3cc(C(=O)N[C@@H](C)C(=O)N(C)C)c(=O)n(-c4cnn(C)c4)n3)ccc12 ? > 7.00

What pIC50 value was documented for this molecule, CN(C)C(=O)C(C)(C)NC(=O)c1cc(-c2ccc(OC(F)(F)F)cc2)nn(-c2cnn(C)c2)c1=O ? > 7.00

I'd like to know its pIC50. The molecule in question is COC[C@H](C)NC(=O)c1cc(-n2ccc(-c3ccc(Cl)cc3)n2)nn(-c2cnn(C)c2)c1=O > 7.00

Requested field: pIC50. Item: COC[C@H](C)NC(=O)c1cc(-c2cnc(N)nc2)nn(-c2cnn(C)c2)c1=O < 6.40

Quick check: pIC50 of COC[C@H](C)NC(=O)c1cc(N2CC3(CCCCC3)C2)nn(-c2cnn(C)c2)c1=O ? < 6.40

Returns the measured pIC50 for the input molecule. Input: COC[C@H](C)NC(=O)c1cc(-c2ccc(C(F)(F)F)cc2)nn(-c2cnn(C)c2)c1=O > 7.00

Using the record for CC(NC(=O)c1cc(-c2ccc(Cl)cc2)nn(-c2cnn(C)c2)c1=O)C(=O)O (stereo not drawn) , report its pIC50. < 6.40

Can you share its pIC50? I mean this molecule: COC[C@H](C)NC(=O)c1cc(-c2cnc(N(C)C)nc2)nn(-c2cnn(C)c2)c1=O 6.40 to 7.00

Recorded pIC50 for CN1CCCC[C@H](NC(=O)c2cc(-c3ccc(OC(F)(F)F)cc3)nn(-c3cnn(C)c3)c2=O)C1=O , please? > 7.00

Request the reported pIC50 associated with COC[C@H](C)NC(=O)c1cc(-c2ccc3c(C)ccnc3c2)nn(-c2cnn(C)c2)c1=O < 6.40

Any idea what pIC50 was measured for CNC(=O)C(C)(C)NC(=O)c1cc(-c2ccc(C(F)(F)F)cc2)nn(-c2cnn(C)c2)c1=O ? > 7.00

Look up pIC50 for this molecule: CN1CCCC[C@H](NC(=O)c2cc(-c3ccc(C(F)(F)F)cc3)nn(-c3cnn(C)c3)c2=O)C1=O > 7.00

GET /values?readout=pIC50&item= CNC(=O)C(C)(C)NC(=O)c1cc(-c2ccc(OC(F)(F)F)cc2)nn(-c2cnn(C)c2)c1=O 6.40 to 7.00

Given C[C@H](NC(=O)c1cc(-c2ccc(C(F)(F)F)cc2)nn(-c2cnn(C)c2)c1=O)C(=O)N(C)C , state its recorded pIC50. > 7.00

I'd like to know its pIC50. The molecule in question is COC[C@H](C)NC(=O)c1cc(-n2cc(-c3ccc(Cl)cc3)cn2)nn(-c2cnn(C)c2)c1=O > 7.00

Consider the molecule C[C@@H](CO)NC(=O)c1cc(-c2cnc(-c3ccccc3)nc2)nn(-c2cnn(C)c2)c1=O and give its measured pIC50. > 7.00

====

For each entry below, report its pIC50 value.
- assayed system: UniProt P35869
- test: AHR antagonist reporter assay in human cell line (INDIGO AhR Reporter Assay System, kynurenic acid activated)
- settings: 200 μM kynurenic acid, 24 hours, luciferase; read-out: AhR Reporter Assay KA Antagonist Mode: IC50
- Experimental: The AhR reporter assay was performed following the protocol of the Human Aryl Hydrocarbon Receptor (AhR) Reporter Assay System (INDIGO Bioscience, #1B06001-32). AhR Reporter Cell was thawed and pre-incubated in Cell Recovery Medium (CRM) for 6 hours. […] The firefly luciferase activity was quantified using a plate reader. […]
pIC50: −log10 of the molar value.

Can you look up the measured pIC50 of COC[C@H](C)NC(=O)c1cc(-c2cc3cccnc3cc2F)nn(-c2cnn(C)c2)c1=O [Compound 121] for me? < 6.40

For the molecule Cc1nn(C)c2cc(-c3cc(C(=O)N[C@@H](C)CO)c(=O)n(-c4cnn(C)c4)n3)ccc12 [Compound 175] , what pIC50 is on record? > 7.00

# query: pIC50 of entry C[C@@H](CO)NC(=O)c1cc(-n2ccc(-c3ccc(Cl)cc3)n2)nn(-c2cnn(C)c2)c1=O [Compound 162] > 7.00

Bench note: what pIC50 did CN(C)C(=O)C(C)(C)NC(=O)c1cc(-c2ccc(Cl)cc2)nn(-c2cnn(C)c2)c1=O [Compound 94] show? > 7.00

If you can, please state the reported pIC50 value of COC[C@H](C)NC(=O)c1cc(-c2cnc(-c3ccc(Cl)cc3)nc2)nn(-c2cnn(C)c2)c1=O [Compound 139] . > 7.00

Please give the measured pIC50 for this molecule: COC[C@H](C)NC(=O)c1cc(-c2ccc3sc(C)nc3c2)nn(-c2cnn(C)c2)c1=O [Compound 132] < 6.40

Return reported pIC50; argument: CC(NC(=O)c1cc(-c2ccc(Cl)cc2)nn(-c2cccc(F)c2)c1=O)C(N)=O (centres unmarked) [Compound 11] < 6.40

Using the record for COC[C@H](C)NC(=O)c1cc(-n2cc(C(F)(F)F)cn2)nn(-c2cnn(C)c2)c1=O [Compound 136] , report its pIC50. < 6.40

Consider the molecule COC[C@H](C)NC(=O)c1cc(-n2nc3ccccc3n2)nn(-c2cnn(C)c2)c1=O [Compound 159] and give its measured pIC50. 6.40 to 7.00

Param item = CC(NC(=O)c1cc(-c2ccc(Cl)cc2)nn(-c2cccc(F)c2)c1=O)C(=O)O (centres unmarked) [Compound 10] ; retrieve measured pIC50. < 6.40

Would you kindly share the measured pIC50 for COC[C@H](C)NC(=O)c1cc(-c2cnc(C(F)(F)F)s2)nn(-c2cnn(C)c2)c1=O [Compound 80] ? < 6.40
